# assay-protocol: Single-dose pharmacokinetics in cancer patients
# Type: in vivo, human
# experimental-context: human, plasma; single oral dose 5 mg/person (n = 1)

compound-string: COc1cc2c(Oc3ccc4[nH]c(C)cc4c3F)ccnc2cc1OCC1(N)CC1
readout-unit: ng·h/mL
AUC(0-inf): 687

---

# assay-protocol: Single-dose pharmacokinetics in cancer patients
# Assay type: in vivo, human
# experimental-context: human, plasma; single oral dose 16 mg/person (n = 4); read-out: AUC0–120h
# Experimental: In single-dose studies, anlotinib were administered orally at dose of 5, 10, 12, or 16 mg anlotinib/person. […] Concentrations of anlotinib were measured by liquid chromatography/mass spectrometry. The maximum concentration (C max) and the time taken to achieve C max (T max) were obtained directly from the data with no interpolation. The area under concentration-time curve up to the last measured time point (AUC0 − t) was calculated by the trapezoidal rule. […]

compound: COc1cc2c(Oc3ccc4[nH]c(C)cc4c3F)ccnc2cc1OCC1(N)CC1 [anlotinib]
AUC(0-t): 0.894 µg·h/mL

---

# assay-protocol: Single-dose pharmacokinetics in cancer patients
# Type: in vivo, human
# experimental-context: human, plasma; single oral dose 5-16 mg/person, range
measured-property: MRT

molecule: COc1cc2c(Oc3ccc4[nH]c(C)cc4c3F)ccnc2cc1OCC1(N)CC1 [anlotinib]
observed: 124 to 167 h

---

# assay-protocol: Single-dose pharmacokinetics in cancer patients
# Type: in vivo, human
# experimental-context: human, plasma; single oral dose 12 mg/person (n = 11)

compound-string: COc1cc2c(Oc3ccc4[nH]c(C)cc4c3F)ccnc2cc1OCC1(N)CC1
half-life: 116 h

---

# assay-protocol: Single-dose pharmacokinetics in cancer patients
# Format: in vivo, human
# experimental-context: human, plasma; single oral dose 12 mg/person (n = 11)

compound-string: COc1cc2c(Oc3ccc4[nH]c(C)cc4c3F)ccnc2cc1OCC1(N)CC1
AUC(0-inf) [ng·h/mL]: 1070

---

# assay-protocol: Single-dose pharmacokinetics in cancer patients
# Type: in vivo, human
# experimental-context: human, plasma; single oral dose 10 mg/person (n = 4)

compound-string: COc1cc2c(Oc3ccc4[nH]c(C)cc4c3F)ccnc2cc1OCC1(N)CC1
half-life [h]: 95

---

# assay-protocol: Single-dose pharmacokinetics in cancer patients
# Format: in vivo, human
# experimental-context: human, plasma; single oral dose 5 mg/person (n = 1)
# Method: In single-dose studies, anlotinib were administered orally at dose of 5, 10, 12, or 16 mg anlotinib/person. […] Concentrations of anlotinib were measured by liquid chromatography/mass spectrometry. The maximum concentration (C max) and the time taken to achieve C max (T max) were obtained directly from the data with no interpolation. The area under concentration-time curve up to the last measured time point (AUC0 − t) was calculated by the trapezoidal rule. […]

compound-string: COc1cc2c(Oc3ccc4[nH]c(C)cc4c3F)ccnc2cc1OCC1(N)CC1
Tmax [h]: 11

---

# assay-protocol: Single-dose pharmacokinetics in cancer patients
# Assay type: in vivo, human
# experimental-context: human, plasma; single oral dose 12 mg/person (n = 11)
measured-property: Tmax (h)

compound-string: COc1cc2c(Oc3ccc4[nH]c(C)cc4c3F)ccnc2cc1OCC1(N)CC1
observed: 7.3

---

# assay-protocol: Single-dose pharmacokinetics in cancer patients
# Assay type: in vivo, human
# experimental-context: human, plasma; single oral dose 12 mg/person (n = 11)

compound-string: COc1cc2c(Oc3ccc4[nH]c(C)cc4c3F)ccnc2cc1OCC1(N)CC1
Cmax / ng/mL: 10.5
